Values compiled from BindingDB's records for doi:10.1021/jm00041a005.

assay_target: Dimer of Gag-Pol polyprotein [489-587] (Human immunodeficiency virus 1)
Construct: 489-587
assay_comment: Protease Inhibition Assay
cond: pH 5.5; 37 °C
experimental_endpoint: pKi
Scale: pKi equals -log10([C]), with [C] in mol/L.

Consider the reported pKi for these compounds:
COC(=O)[C@@H](NC(=O)[C@@H](NC(=O)CC[C@H](O)[C@H](Cc1ccccc1)NC(=O)[C@H](C)NC(=O)[C@H](C)N)C(C)C)C(C)C | 7.74
C[C@H](N)C(=O)N[C@@H](C)C(=O)N[C@@H](Cc1ccccc1)[C@@H](O)CCC(=O)NC(c1ccccc1)c1nc2ccccc2[nH]1 (stereo partly drawn) | 5.27
Cc1cccc(C(NC(=O)CC[C@H](O)[C@H](Cc2ccccc2)NC(=O)[C@H](CC(N)=O)NC(=O)c2ccc3ccccc3n2)c2cc3ccccc3[nH]2)c1 (stereo partly drawn) | 7.41
NC(=O)C[C@H](NC(=O)c1ccc2ccccc2n1)C(=O)N[C@@H](Cc1ccccc1)[C@@H](O)CCC(=O)NC(c1cc2ccccc2[nH]1)C1CCCCC1 (stereo partly drawn) | 6.74
NC(=O)C[C@H](NC(=O)c1ccc2ccccc2n1)C(=O)N[C@@H](Cc1ccccc1)[C@@H](O)CCC(=O)NC(c1ccccc1)c1nc2ccccc2[nH]1 (stereo partly drawn) | 6.32
NC(=O)C[C@H](NC(=O)c1ccc2ccccc2n1)C(=O)N[C@@H](Cc1ccccc1)[C@@H](O)CCC(=O)NC(c1cccc(C(F)(F)F)c1)c1cc2ccccc2[nH]1 (stereo partly drawn) | 7.48

Exercise: Would you mind telling me what pKi value was observed for NC(=O)C[C@H](NC(=O)c1ccc2ccccc2n1)C(=O)N[C@@H](Cc1ccccc1)[C@@H](O)CCC(=O)NC(c1ccccc1)c1cc2ccccc2[nH]1 (stereo partly drawn) ?
Solution: 7.37

Exercise: Please give the result for NC(=O)C[C@H](NC(=O)c1ccc2ccccc2n1)C(=O)N[C@@H](Cc1ccccc1)[C@@H](O)C[C@@H](Cc1ccccc1)C(=O)NC(c1ccccc1)c1cc2ccccc2[nH]1 (stereo partly drawn) too.
Solution: 5.89
